Assay: MMV: MTT Cytotoxicity Assay Day 3 pi, U87-CD4-CCR5 cells, % cell death @ 5mM compound
Format: toxicity, cell-based
Settings: human, u87-cd4-ccr5, 5000 µM
MEASURED ENDPOINT: % Cell Death
Respond using a number only.

The examples below pair each entry with its known result.
In [3]: df
Out[3]:
                                   compound  measured_value
0     CC(C)(C)c1ccc(C(=O)Nc2nc3ccccc3s2)cc1               1
1      CCCCNCC(O)(c1ccc(Cl)cc1)c1ccc(Cl)cc1              16
2  CCn1c(SCC(=O)Nc2cc(C(F)(F)F)ccc2Cl)nc2ccccc2c1=O              -1
3  CCn1c(CN2CCN(Cc3ccccc3)CC2)nc2cc(NC(=O)c3cccs3)ccc21              21
4  Cl.N=c1n(CCN2CCCCC2)c2ccccc2n1CC(O)c1cccc(Br)c1 (centres undefined)               2
5  COc1ccc(C=C2SC(Nc3ccc(F)cc3)=NC2=O)c(OC)c1              25

Noted for CN(C)CCCNCc1ccc(-c2ccc(F)c(Cl)c2)o1.Cl : its % Cell Death reads 20

% Cell Death measured on Cc1cc(Nc2ccc(C)c(Cl)c2)n2nc(C(F)(F)F)nc2n1 = 11
